# EC50 listing for each entry below
Target: human TLR7 (Homo sapiens, UniProt Q9NYK1)
Sequence (Q9NYK1 27-1049): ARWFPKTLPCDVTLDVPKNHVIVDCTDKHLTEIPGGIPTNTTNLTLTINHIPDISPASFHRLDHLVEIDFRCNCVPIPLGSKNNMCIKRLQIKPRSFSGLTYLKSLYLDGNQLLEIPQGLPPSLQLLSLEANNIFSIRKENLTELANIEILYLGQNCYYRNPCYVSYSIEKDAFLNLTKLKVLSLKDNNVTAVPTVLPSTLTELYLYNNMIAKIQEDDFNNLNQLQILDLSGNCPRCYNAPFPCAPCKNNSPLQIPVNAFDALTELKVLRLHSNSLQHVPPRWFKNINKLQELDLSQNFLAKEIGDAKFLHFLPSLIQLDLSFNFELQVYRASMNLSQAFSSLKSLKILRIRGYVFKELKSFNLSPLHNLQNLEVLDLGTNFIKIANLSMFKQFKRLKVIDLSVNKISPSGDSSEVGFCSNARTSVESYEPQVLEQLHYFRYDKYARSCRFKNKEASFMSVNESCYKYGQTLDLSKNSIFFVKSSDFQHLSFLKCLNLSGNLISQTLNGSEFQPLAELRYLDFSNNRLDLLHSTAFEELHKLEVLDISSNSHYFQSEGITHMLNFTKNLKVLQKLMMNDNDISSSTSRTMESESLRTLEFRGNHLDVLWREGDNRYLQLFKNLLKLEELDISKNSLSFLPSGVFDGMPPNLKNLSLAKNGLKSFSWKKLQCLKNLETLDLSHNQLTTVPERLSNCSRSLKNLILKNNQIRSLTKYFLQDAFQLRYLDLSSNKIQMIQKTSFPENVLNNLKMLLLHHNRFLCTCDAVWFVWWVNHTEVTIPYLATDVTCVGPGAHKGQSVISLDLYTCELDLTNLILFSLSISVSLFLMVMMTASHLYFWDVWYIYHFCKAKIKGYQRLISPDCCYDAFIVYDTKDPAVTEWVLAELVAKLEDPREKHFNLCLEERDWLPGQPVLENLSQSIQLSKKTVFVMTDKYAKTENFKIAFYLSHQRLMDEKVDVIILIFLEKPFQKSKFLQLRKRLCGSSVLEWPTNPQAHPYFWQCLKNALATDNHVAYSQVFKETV
Assay: HEK293-Blue hTLR7 reporter assay (QUANTI-BLUE, SEAP readout)
Type: cell-based
Set-up: host or cells: HEK293 (HEK-Blue-hTLR7)
Settings: HEK-Blue-hTLR7 cells, QUANTI-BLUE assay (A1-A76), 24 hrs

Reported EC50 for CCCCOc1nc(N)c2ncc(Cc3cc(CN4CCCC4)ccc3F)n2n1 [Compound A26] was > 10 µM

Reported EC50 for CCCCOc1nc(N)c2ncc(Cc3cccc(CN4CCN(C)CC4)c3)n2n1 [Compound A13] was > 10 µM

Reported EC50 for CCCCOc1nc(N)c2ncc(Cc3ccc(CN4CCOCC4)cc3)n2n1 [Compound A3] was > 10 µM

Reported EC50 for CCCCOc1nc(N)c2ncc(Cc3cnn(CC4CCCNC4)c3)n2n1 (centres unmarked) [Compound A76] was > 10 µM

Reported EC50 for CCCCOc1nc(N)c2ncc(Cc3ccc(OCCCN(C)C)c(C(=O)OC)c3)n2n1 [Compound A57] was 0.375 µM
